- Tested on: M. tuberculosis H37Rv growth inhibition with meropenem
- run description: dose response, H37Rv, with and without meropenem (AID 434987);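 further: growth over 7 days at 37 °C before Alamar Blue read on day 9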
- condition details: M. tuberculosis H37Rv growth inhibition; measured here: IC50 without meropenem
Please respond with Criterion met when measured IC50 is strictly beneath 60 µM, and with Criterion not met in all other cases.

compound: O=C(Nc1nnc(-c2ccco2)o1)c1ccc(S(=O)(=O)N2CCOCC2)cc1
assigned label: Criterion not met

compound: Cc1nn(-c2ccccc2)c(Cl)c1CN(C(=O)CCl)c1cccc2ccccc12
assigned label: Criterion met

compound: CC1(C)CC(CCNC(=O)CCl)(c2ccccc2)CCO1 (configuration not stated)
assigned label: Criterion met

compound: CCCC1=C/C(=C/c2ccc(-c3ccccc3OC)o2)C(=O)O1
assigned label: Criterion met

compound: C=CCn1cc(C(=O)NCCCOC)c(=O)c2cc(S(=O)(=O)N(CC)CC)ccc21
assigned label: Criterion not met

compound: Cc1ccc(-c2cc(C(=O)N/N=C/C=C/c3ccccc3)n[nH]2)o1
assigned label: Criterion not met

compound: Cc1ccc(NC(=O)O/N=C/c2c(C)nn(C(C)(C)C)c2C)cc1Cl
assigned label: Criterion not met

compound: O=C(COc1ccc2ccccc2c1)Nc1nc2ccccc2[nH]1
assigned label: Criterion not met

compound: O=C(CSc1nnc(-c2ccncc2)o1)c1cccc([N+](=O)[O-])c1
assigned label: Criterion met

compound: COC(=O)c1cc(OC)c(OC)cc1NC(=S)N1CCN(C)CC1
assigned label: Criterion not met

compound: Cc1cccc(C)c1NC(=O)C1CC2CCC1C2 (configuration not stated)
assigned label: Criterion not met
